test: Antagonist activity against 1-alpha,25-dihydroxy vitamin D3-induced HL60 cell differentiation by NBT reduction method
measureName: IC50 (nM)

itemsmiles=C=C1/C(=C\C=C2/CCC[C@]3(C)[C@@H]([C@H](C)C[C@H]4OC(=O)C(=C)[C@@H]4CCC)CC[C@@H]23)C[C@@H](O)[C@H](CCCO)[C@@H]1O unit=nM obsvalue=6.3
itemsmiles=C=C1/C(=C\C=C2/CCC[C@]3(C)[C@@H]([C@H](C)C[C@@H]4OC(=O)C(=C)[C@H]4CCCC)CC[C@@H]23)C[C@@H](O)[C@H](C)[C@@H]1O unit=nM obsvalue=6.7
itemsmiles=C=C1/C(=C\C=C2/CCC[C@]3(C)[C@@H]([C@H](C)C[C@@H]4OC(=O)C(=C)[C@@H]4CCCC)CC[C@@H]23)C[C@@H](O)[C@H](C)[C@@H]1O unit=nM obsvalue=6.7
itemsmiles=C=C1C(=O)O[C@@H](C[C@@H](C)[C@H]2CC[C@H]3/C(=C/C=C4/C[C@@H](O)[C@H](CCCO)[C@H](O)C4=C)CCC[C@]23C)[C@@H]1C unit=nM obsvalue=6.2
itemsmiles=C=C1/C(=C\C=C2/CCC[C@]3(C)[C@@H]([C@H](C)C[C@@H]4OC(=O)C(=C)[C@@H]4CC)CC[C@@H]23)C[C@@H](O)[C@H](C)[C@@H]1O unit=nM obsvalue=6.7
itemsmiles=C=C1/C(=C\C=C2/CCC[C@]3(C)[C@@H]([C@H](C)C[C@@H]4OC(=O)C(=C)[C@H]4CCC)CC[C@@H]23)C[C@@H](O)[C@H](OCCCO)[C@@H]1O unit=nM obsvalue=6.3
itemsmiles=C=C1C(=O)O[C@H](C[C@@H](C)[C@H]2CC[C@H]3/C(=C/C=C4/C[C@@H](O)C[C@H](O)C4=C)CCC[C@]23C)[C@@H]1CC(C)C unit=nM obsvalue=10
itemsmiles=C=C1/C(=C\C=C2/CCC[C@]3(C)[C@@H]([C@H](C)C[C@H]4OC(=O)C(=C)[C@H]4CC)CC[C@@H]23)C[C@@H](O)[C@H](C)[C@@H]1O unit=nM obsvalue=6.7
itemsmiles=C=C1/C(=C\C=C2/CCC[C@]3(C)[C@@H]([C@H](C)C[C@H]4OC(=O)C(=C)[C@@H]4C)CC[C@@H]23)C[C@@H](O)[C@H](OCCCO)[C@@H]1O unit=nM obsvalue=6.1
itemsmiles=C=C1/C(=C\C=C2/CCC[C@]3(C)[C@@H]([C@H](C)C[C@H]4OC(=O)C(=C)[C@@H]4CC(C)C)CC[C@@H]23)C[C@@H](O)[C@H](CCCO)[C@@H]1O unit=nM obsvalue=9.3
itemsmiles=C=C1/C(=C\C=C2/CCC[C@]3(C)[C@@H]([C@H](C)C[C@@H]4OC(=O)C(=C)[C@@H]4CCC)CC[C@@H]23)C[C@@H](O)[C@H](C)[C@@H]1O unit=nM obsvalue=6.3
itemsmiles=C=C1/C(=C\C=C2/CCC[C@]3(C)[C@@H]([C@H](C)C[C@@H]4OC(=O)C(=C)[C@@H]4CC(C)C)CC[C@@H]23)C[C@@H](O)[C@H](OCCCO)[C@@H]1O unit=nM obsvalue=9.3
itemsmiles=C=C1/C(=C\C=C2/CCC[C@]3(C)[C@@H]([C@H](C)C[C@H]4OC(=O)C(=C)[C@@H]4C)CC[C@@H]23)C[C@@H](O)[C@H](C)[C@@H]1O unit=nM obsvalue=8.1

Every entry's value here was drawn from BindingDB's records for doi:10.1021/jm060797q.
